B1: CPEB3 Ribozyme (parent)
chain: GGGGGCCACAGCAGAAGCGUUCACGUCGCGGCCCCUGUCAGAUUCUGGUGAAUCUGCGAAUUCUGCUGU

Variants of: B1
Test: self-cleavage, relative activity (ratio to wild type); higher = more cleavage; co-transcriptional
Value kind: self-cleavage
The answer should be a number; do not append a unit.

// below: answered variants
# Mut, Measured number
measured = [
    ("G25A C27A", 0.162),
    ("G19U U67C", 0.461),
    ("U36G G41U", 0.373),
    ("U21C C33U", 0.919),
    ("G17A U55G", 0.16),
    ("U20C U62C", 0.204),
    ("C33G U64A", 0.638),
    ("C35A U62A", 0.306),
]

**Q:** I would be grateful if you could share the reported self-cleavage for U61A G65C .
**A:** 0.542

**Q:** I would be grateful if you could share the reported self-cleavage for A23U G47U .
**A:** 0.983

**Q:** I would be grateful if you could share the reported self-cleavage for U43C A60G .
**A:** 0.798

**Q:** I would be grateful if you could share the reported self-cleavage for G19A U61A .
**A:** 0.16

**Q:** I would be grateful if you could share the reported self-cleavage for U21A A23U .
**A:** 0.962

**Q:** I would be grateful if you could share the reported self-cleavage for U55G U62C .
**A:** 0.517

**Q:** I would be grateful if you could share the reported self-cleavage for A13C G28U .
**A:** 0.116

**Q:** I would be grateful if you could share the reported self-cleavage for G56U G58C .
**A:** 0.989

**Q:** I would be grateful if you could share the reported self-cleavage for G1A U69G .
**A:** 0.23

**Q:** I would be grateful if you could share the reported self-cleavage for C22A U38A .
**A:** 0.225
